Hey, just so you know, these numbers are from patent US20200317776A1.

Items are presented alongside their recorded Survival huDCs plate bound IgG, AUC.
- target.desc: T1, human TREM2 expressed on cells (human, UniProt Q9NZC2 19-230)
- T1 sequence: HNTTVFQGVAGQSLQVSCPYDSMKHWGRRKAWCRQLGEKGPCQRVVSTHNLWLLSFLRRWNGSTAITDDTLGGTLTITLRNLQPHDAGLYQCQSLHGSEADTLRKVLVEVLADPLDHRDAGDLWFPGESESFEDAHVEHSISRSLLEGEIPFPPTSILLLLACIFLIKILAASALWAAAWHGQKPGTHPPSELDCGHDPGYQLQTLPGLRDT
- assay.remarks: cell-based or functional assay
measured.quantity: Survival huDCs plate bound IgG, AUC (AUC)

binder="AL2p-29 (antibody, V domains shown, Fab and IgG formats under one id) VH: QVQLVQSGAEVKKPGSSVKVSCKASGYAFSSQWMNWVRQAPGQGLEWMGRIYPGDGDTNYAQKFQGRVTITADESTSTAYMELSSLRSEDTAVYYCARLLRNQPGESYAMDYWGQGTLVTVSS VL: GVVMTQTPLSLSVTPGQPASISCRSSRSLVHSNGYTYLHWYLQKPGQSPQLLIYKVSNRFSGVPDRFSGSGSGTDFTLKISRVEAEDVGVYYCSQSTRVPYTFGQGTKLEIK" assay_value=1.11e+06
binder="AL2p-8 (antibody, V domains shown, Fab and IgG formats under one id) VH: QVQLVQSGAEVKKPGSSVKVSCKASGYAFSLSWMNWVRQAPGQGLEWMGRIYPGDGDTNYARKFQGRVTITADESTSTAYMELSSLRSEDTAVYYCARLLRNQPGSSYAMDYWGQGTLVTVSS VL: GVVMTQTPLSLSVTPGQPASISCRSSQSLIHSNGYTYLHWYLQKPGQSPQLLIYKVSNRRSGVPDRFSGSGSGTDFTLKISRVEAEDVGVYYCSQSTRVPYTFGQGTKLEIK" assay_value=1.09e+06
binder="AL2p-37 (antibody, IgG1, V domains shown, Fab and IgG formats under one id; also called AL2p-37 huIgG1) VH: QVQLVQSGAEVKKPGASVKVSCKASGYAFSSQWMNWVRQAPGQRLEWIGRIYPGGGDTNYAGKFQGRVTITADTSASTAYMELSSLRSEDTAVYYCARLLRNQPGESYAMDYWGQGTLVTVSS VL: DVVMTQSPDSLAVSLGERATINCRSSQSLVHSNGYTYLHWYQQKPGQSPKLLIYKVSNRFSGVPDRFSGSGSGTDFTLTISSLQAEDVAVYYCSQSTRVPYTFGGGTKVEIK" assay_value=680000
